System under test: pepsin (SIGMA, 2XCRY) (Sus scrofa)
Construct: purchased SIGMA 2XCRY
Sequence (P00791 60-385): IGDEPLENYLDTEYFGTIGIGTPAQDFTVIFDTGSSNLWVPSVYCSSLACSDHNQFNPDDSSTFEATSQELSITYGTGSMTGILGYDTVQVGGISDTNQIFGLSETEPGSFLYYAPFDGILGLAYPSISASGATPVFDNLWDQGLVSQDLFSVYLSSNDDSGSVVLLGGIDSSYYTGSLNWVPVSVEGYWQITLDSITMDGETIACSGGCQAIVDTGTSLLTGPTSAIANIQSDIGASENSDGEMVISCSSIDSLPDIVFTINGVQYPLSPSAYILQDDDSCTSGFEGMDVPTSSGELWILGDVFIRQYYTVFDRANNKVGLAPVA
Experimental details: Assay of pepsin-inhibitory activity (casein digestion)
Format: biochemical
Condition details: casein, pH 2, 37° C, 30 minutes; read-out: ID50 Pepsin (converted)
Value type: IC50 (nM)

* CC(C)C[C@H](NC(=O)[C@H](C)NC(=O)C[C@H](O)[C@H](CC(C)C)NC(=O)[C@@H](NC(=O)C(C)O)C(C)C)[C@@H](O)CC(=O)O (stereo partly drawn) | 34.8
* CCCCCCCCCCCCCCCC(=O)N[C@H](C(=O)N[C@@H](CC(C)C)[C@@H](O)CC(=O)N[C@@H](C)C(=O)N[C@@H](CC(C)C)[C@@H](O)CC(=O)O)C(C)C | 607
* CC(C)C[C@H](NC(=O)[C@H](C)NC(=O)C[C@H](O)[C@H](CC(C)C)NC(=O)[C@@H](NC(=O)C(C)Oc1ccccc1)C(C)C)[C@@H](O)CC(=O)O (stereo partly drawn) | 30.7
